Molecular target: Factor Xa (Homo sapiens)
Sequence (P00742 235-488 limits assumed): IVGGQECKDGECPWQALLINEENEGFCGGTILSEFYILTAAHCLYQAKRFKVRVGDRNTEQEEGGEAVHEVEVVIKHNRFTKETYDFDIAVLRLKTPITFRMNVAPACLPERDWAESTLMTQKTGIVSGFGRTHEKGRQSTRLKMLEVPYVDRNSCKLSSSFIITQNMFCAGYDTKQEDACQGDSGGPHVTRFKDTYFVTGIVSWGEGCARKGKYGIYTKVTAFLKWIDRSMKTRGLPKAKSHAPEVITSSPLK
Sequence (P00742 41-179 partner limits assumed): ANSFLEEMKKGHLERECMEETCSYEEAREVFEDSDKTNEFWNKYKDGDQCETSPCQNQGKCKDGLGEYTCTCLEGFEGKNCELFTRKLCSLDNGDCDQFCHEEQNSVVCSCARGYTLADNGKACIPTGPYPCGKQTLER
Catalogue of compounds with associated IC50
READOUT_KIND: IC50 (nM)

INSERT INTO measurements (smiles_notation, readout_kind, readout_value) VALUES
  ('N=C(N)c1cc2cc(OC(=O)c3ccco3)ccc2o1', 'IC50', 4),
  ('N=C(N)C1=Cc2ccc(OC(=O)c3ccco3)cc2OC1', 'IC50', 3.9),
  ('N=C(N)c1cc2ccc(OC(=O)c3ccco3)cc2o1', 'IC50', 60);
